# experimental.target: human beta-tryptase (Homo sapiens, UniProt P20231)
# Sequence (P20231 31-275): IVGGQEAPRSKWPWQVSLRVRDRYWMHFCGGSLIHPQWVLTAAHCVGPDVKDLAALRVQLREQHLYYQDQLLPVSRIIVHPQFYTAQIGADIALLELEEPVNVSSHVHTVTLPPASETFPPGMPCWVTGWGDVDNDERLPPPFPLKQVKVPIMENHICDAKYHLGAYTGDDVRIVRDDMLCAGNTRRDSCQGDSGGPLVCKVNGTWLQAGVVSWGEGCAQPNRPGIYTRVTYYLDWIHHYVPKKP
# assay.remarks: Inhibition of recombinant human beta-tryptase (Ki)
# protocol.conditions: recombinant enzyme
reported.property: pKi
Answers are plain numbers, as −log10 of the molar value.

Look at this compound and give its reported pKi. COCCn1cc(C(=O)N2CCC(c3cc(CN)ccc3F)CC2)c2c(OC(F)(F)F)ccc(F)c21 7.42

# credit: patent US20120238603A1
